Listed here are molecules together with their documented IC50.
# target of assay: HKU5-3CL^pro (Bat coronavirus HKU5 (BtCoV) (BtCoV/HKU5/2004))
# Sequence (P0C6W4 3339-3644 limits assumed): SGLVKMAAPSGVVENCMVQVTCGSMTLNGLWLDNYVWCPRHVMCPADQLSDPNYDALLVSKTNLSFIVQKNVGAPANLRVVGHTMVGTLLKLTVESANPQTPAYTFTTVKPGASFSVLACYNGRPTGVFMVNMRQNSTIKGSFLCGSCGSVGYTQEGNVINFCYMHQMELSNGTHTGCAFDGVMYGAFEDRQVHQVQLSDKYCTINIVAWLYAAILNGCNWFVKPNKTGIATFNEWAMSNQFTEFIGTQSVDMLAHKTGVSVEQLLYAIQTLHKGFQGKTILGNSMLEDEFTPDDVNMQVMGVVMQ
Give the value, in units of nM, as a plain number.

Example molecules with recorded IC50:
stdin: Any idea what IC50 was measured for CC(C)C(=O)Nc1ccc(N(C(=O)Cn2nnc3ccccc32)C(C(=O)NCc2ccccc2)c2cccc(F)c2)cc1 (stereo not shown) [Compound 1P, reference compound] ?
stdout: 1200

stdin: Any idea what IC50 was measured for COc1cccc(C(C(=O)NCc2ccccc2)N(C(=O)Cn2nnc3ccccc32)c2ccc(NC(=O)C(C)C)cc2)c1 (stereo not shown) ?
stdout: 2200

stdin: Any idea what IC50 was measured for CC(C)NC(=O)C(c1ccsc1)N(C(=O)Cn1nnc2ccccc21)c1ccc(NC(=O)C2CC2)cc1 (stereo not shown) ?
stdout: 2400

Continuing:
stdin: Any idea what IC50 was measured for O=C(Nc1ccc(N(C(=O)Cn2nnc3ccccc32)C(C(=O)NC2CC2)c2ccsc2)cc1)C1CC1 (stereo not shown) ?
stdout: 900
